System: microfilariae of Dirofilaria immitis
experimental.details: Dirofilaria immitis, Microfilaria (DiMF) Assay
Format: cell-based
test.context: read-out: D. immitis activity level (IC50 or MED)
observable: IC50

Answered cases to consult:
smiles.code: CC(C)Oc1cnc(-c2nsc(Nc3ncccc3C(F)(F)F)n2)cc1C(N)=O
endpoint.result: 500 to 5000 nM
--
smiles.code: CC(C)c1ccnc(-c2nsc(Nc3ncccc3C(F)(F)F)n2)c1
endpoint.result: < 200 nM
--
smiles.code: CC(C)Oc1ccc(-c2nsc(Nc3ncc(C(F)(F)F)cc3N(C)C(=O)C3CC3)n2)nc1
endpoint.result: < 200 nM
--
smiles.code: CN(C)c1cccnc1Nc1nc(-c2ccc(F)cn2)ns1
endpoint.result: 500 to 5000 nM

Entry under test: `c1ccc(-c2nsc(Nc3ccc(OC4CCOCC4)cn3)n2)nc1` . Its IC50 was 500 to 5000 nM
